Origin of values: ChEMBL document CHEMBL1129793

- Test details: T1/2 in equine serum
- Assay type: ADME, organism-based, Equus caballus
- Condition set: horse
What half-life was measured for each of the following?
Numeric answer only, unit min assumed.

Short answer for CCCCCC(C)(CCCCC)OC(=O)c1cnc(Cl)cn1 : half-life was 360

Short answer for CCCCCCCCCC(C)OC(=O)c1cnc(Cl)cn1 (stereo not given) : half-life was 29.6

Short answer for CCCCCOC(=O)c1cnc(Cl)cn1 : half-life was 3.2

Short answer for CCCCCCCCCOC(=O)c1cnc(Cl)cn1 : half-life was 2.3

Short answer for CCOC(=O)c1cnc(Cl)cn1 : half-life was 110

Short answer for CCCCCCC(C)(CCCC)OC(=O)c1cnc(Cl)cn1 (stereo not given) : half-life was 648

Short answer for CCCCCCCCCCCOC(=O)c1cnc(Cl)cn1 : half-life was 6

Short answer for CCCCCCCCCCOC(=O)c1cnc(Cl)cn1 : half-life was 1.9

Short answer for CCCCCCCC(C)OC(=O)c1cnc(Cl)cn1 (stereo not given) : half-life was 30

Short answer for CCCCCCCCCOC(=O)c1cnc(C)cn1 : half-life was 1

Short answer for O=C(OCc1ccccc1)c1cnc(Cl)cn1 : half-life was 5

Short answer for CCCCCCCCC(CC)OC(=O)c1cnc(Cl)cn1 (stereo not given) : half-life was 9

Short answer for CCCCCCC(C)(CCCCCC)OC(=O)c1cnc(Cl)cn1 : half-life was 1080

Short answer for CCCCCCCCC(C)OC(=O)c1cnc(Cl)cn1 (stereo not given) : half-life was 23.7

Short answer for CCCCCCC(C)OC(=O)c1cnc(Cl)cn1 (stereo not given) : half-life was 28.2
